Reported Stability (Arbitrary units) Rat 24 h is given for each of the following compounds.
- assay-method-text: Stability of compounds in rat blood plasma
- Format: in vitro ADME
- Description: The stability of the peptidomimetic compounds was determined in rat (Charles River Laboratories, Sulzfeld), mouse (Charles River Laboratories, Sulzfeld) and human (Bayerisches Rotes Kreuz, München) blood plasma (E. R. Garrett and M. R. Gardner, J Pharmaceutical Sciences 71 (1982) 14-25). Compound stock solutions were diluted into blood plasma to give a final compound concentration of 5 μM and the mixtures were incubated at 37° C. […]
Square brackets hold non-standard residues; d marks the D form. Peptide text beside a SMILES is read from it. * marks the point of attachment. Gly(1-amidinopiperidin-4-yl) = N=C(N)N1CCC([C@H](N)C(=O)O)CC1; Tic = O=C(O)[C@@H]1Cc2ccccc2CN1; Cha = N[C@@H](CC1CCCCC1)C(=O)O; Nle = CCCC[C@H](N)C(=O)O; X2 = OCCOCCN(Cc1ccccc1)*; X6 = OCCN(CCc1ccccc1)*; NHBn = c1ccc(CN*)cc1
Report the value in Arbitrary units with no unit label.

Some solved entries appear below for comparison.
- compound: "CCCC[C@H](NC(=O)[C@@H]1Cc2ccccc2CN1C(=O)[C@@H](NC(=O)[C@H](CC1CCCCC1)NC(C)=O)C1CCN(C(=N)N)CC1)C(=O)N(CCOCCO)Cc1ccccc1 [Compound P101, Ac-Cha-Gpg-Tic-Nle-N(Bn)CH2CH2OCH2CH2OH] (Ac-[Cha][Gly(1-amidinopiperidin-4-yl)][Tic][Nle]-X2)"
  Stability (Arbitrary units) Rat 24 h: 81
- compound: "CSCC[C@H](NC(=O)[C@@H]1Cc2ccccc2CN1C(=O)[C@H](CCCNC(=N)N)NC(=O)[C@H](CC1CCCCC1)NC(C)=O)C(=O)N(CCO)CCc1ccccc1 [Compound P85, Ac-Cha-Arg-Tic-Met-N(CH2CH2OH)CH2CH2Ph] (Ac-[Cha]R[Tic]M-X6)"
  Stability (Arbitrary units) Rat 24 h: 71
- compound: "CCCC[C@H](NC(=O)[C@@H]1Cc2ccccc2CN1C(=O)[C@@H](NC(=O)[C@H](CC1CCCCC1)NC(C)=O)C1CCN(C(=N)N)CC1)C(=O)NCc1ccccc1 [Compound P68, Ac-Cha-Gpg-Tic-Nle-N(H)Bn] (Ac-[Cha][Gly(1-amidinopiperidin-4-yl)][Tic][Nle]-NHBn)"
  Stability (Arbitrary units) Rat 24 h: 0

Let's switch to this compound now.
Exam item: Reported Stability (Arbitrary units) Rat 24 h, compound CSCC[C@H](NC(=O)[C@@H]1Cc2ccccc2CN1C(=O)[C@@H](NC(=O)[C@H](CC1CCCCC1)NC(C)=O)C1CCN(C(=N)N)CC1)C(N)=O [Compound P67, Ac-Cha-Gpg-Tic-Met-NH2] (Ac-[Cha][Gly(1-amidinopiperidin-4-yl)][Tic]M-NH2) : ____
Marked response: 34

* * *

- assay-method-text: Stability of compounds in rat blood plasma
- Type: in vitro ADME
Numbered stars: 1 amine (or outer) side, 2 acyl side, 3 side chain; on linkers, the order of the positions; unused ones are H or OH. Square brackets hold non-standard residues; d marks the D form. Peptide text beside a SMILES is read from it. * marks the point of attachment. ξ: configuration not given here. Gly(1-amidinopiperidin-4-yl) = N=C(N)N1CCC([C@H](N)C(=O)O)CC1; X1 = CC(C)c1oc([C@H](CO)N[*:1])nc1C(=O)[*:2]; Pro(3R-Ph) = O=C(O)[C@H]1NCC[C@@H]1c1ccccc1; Tic = O=C(O)[C@@H]1Cc2ccccc2CN1; Cha = N[C@@H](CC1CCCCC1)C(=O)O; NMe(benzyl) = CN(Cc1ccccc1)*; ξDisc = O=C(O)C1NCc2ccccc21; X4 = OCCOCCN(CCc1ccccc1)*; Nle = CCCC[C@H](N)C(=O)O; X2 = OCCOCCN(Cc1ccccc1)*
quantity-measured: Stability (Arbitrary units) Rat 24 h
Respond numerically; units are Arbitrary units and should not be typed.

Take a look at these entries with their results.
- compound: "CCCC[C@H](NC(=O)[C@@H]1Cc2ccccc2CN1C(=O)[C@H](CCCNC(=N)N)NC(=O)[C@H](CC1CCCCC1)NC(C)=O)C(=O)N(CCOCCO)CCc1ccccc1 [Compound P88] (Ac-[Cha]R[Tic][Nle]-X4)"
  Stability (Arbitrary units) Rat 24 h: 55
- compound: "CSCC[C@H](NC(=O)[C@@H]1Cc2ccccc2CN1C(=O)[C@@H](NC(=O)[C@H](CC1CCCCC1)NC(C)=O)C1CCN(C(=N)N)CC1)C(=O)N1CC[C@H](c2ccccc2)[C@H]1C(=O)N[C@@H](CO)c1nc(C(=O)N(C)C)c(C(C)C)o1 [Compound P60] (Ac-[Cha][Gly(1-amidinopiperidin-4-yl)][Tic]M[Pro(3R-Ph)][X1]-NMe2)"
  Stability (Arbitrary units) Rat 24 h: 124
- compound: "CSCC[C@H](NC(=O)[C@@H]1Cc2ccccc2CN1C(=O)[C@H](CCCNC(=N)N)NC(=O)[C@H](CC1CCCCC1)NC(C)=O)C(=O)N(CCOCCO)Cc1ccccc1 [Compound P99, Ac-Cha-Arg-Tic-Met-N(Bn)CH2CH2OCH2CH2OH] (Ac-[Cha]R[Tic]M-X2)"
  Stability (Arbitrary units) Rat 24 h: 62
- compound: "CCCC[C@H](NC(=O)[C@@H]1Cc2ccccc2CN1C(=O)[C@H](CCCNC(=N)N)NC(=O)[C@H](CC1CCCCC1)NC(C)=O)C(=O)N(C)Cc1ccccc1 [Compound P71, Ac-Cha-Arg-Tic-Nle-N(Me)Bn] (Ac-[Cha]R[Tic][Nle]-{NMe(benzyl)})"
  Stability (Arbitrary units) Rat 24 h: 53
- compound: "CSCC[C@H](NC(=O)C1c2ccccc2CN1C(=O)[C@@H](NC(=O)[C@H](CC1CCCCC1)NC(C)=O)C1CCN(C(=N)N)CC1)C(N)=O (stereo partly drawn) [Compound P66-1, Ac-Cha-Gpg-Disc-Met-NH2] (Ac-[Cha][Gly(1-amidinopiperidin-4-yl)][ξDisc]M-NH2)"
  Stability (Arbitrary units) Rat 24 h: 81
- compound: "CSCC[C@H](NC(=O)C1c2ccccc2CN1C(=O)[C@H](CCCNC(=N)N)NC(=O)[C@H](CC1CCCCC1)NC(C)=O)C(N)=O (stereo partly drawn) [Compound P12-1, Ac-Cha-Arg-Disc-Met-NH2] (Ac-[Cha]R[ξDisc]M-NH2)"
  Stability (Arbitrary units) Rat 24 h: 10

Turning now to a further record.
Exam item: Dear colleague, I am looking for the recorded Stability (Arbitrary units) Rat 24 h of the following compound: CCCC[C@H](NC(=O)[C@@H]1Cc2ccccc2CN1C(=O)[C@H](CCCNC(=N)N)NC(=O)[C@H](CC1CCCCC1)NC(C)=O)C(=O)N(CCOCCO)Cc1ccccc1 [Compound P98, Ac-Cha-Arg-Tic-Nle-N(Bn)CH2CH2OCH2CH2OH] (Ac-[Cha]R[Tic][Nle]-X2)
Marked response: 60

* * *

Stability (Arbitrary units) Human 24 h values for the compounds below.
- assay-method-text: Stability of compounds in human blood plasma
- Type: in vitro ADME
Numbered stars: 1 amine (or outer) side, 2 acyl side, 3 side chain; on linkers, the order of the positions; unused ones are H or OH. Square brackets hold non-standard residues; d marks the D form. Peptide text beside a SMILES is read from it. X1 = CC(C)c1oc([C@H](CO)N[*:1])nc1C(=O)[*:2]; Pro(3R-Ph) = O=C(O)[C@H]1NCC[C@@H]1c1ccccc1; Met(O) = CS(=O)CC[C@H](N)C(=O)O; Tic = O=C(O)[C@@H]1Cc2ccccc2CN1; Cha = N[C@@H](CC1CCCCC1)C(=O)O
Response body: numeric value in Arbitrary units, unit text excluded.

- compound: "CSCC[C@H](NC(=O)[C@@H]1Cc2ccccc2CN1C(=O)[C@H](CCCNC(=N)N)NC(=O)[C@H](CC1CCCCC1)NC(C)=O)C(=O)N1CC[C@H](c2ccccc2)[C@H]1C(N)=O [Compound P31, Ac-Cha-Arg-Tic-Met-βPhPro-NH2] (Ac-[Cha]R[Tic]M[Pro(3R-Ph)]-NH2)"
  quantity-measured: "Stability (Arbitrary units) Human 24 h"
  reading-unit: "Arbitrary units"
  observed: 86

Note: attention shifts to another entry.
Exam item: Given the compound CC(=O)N[C@@H](CC1CCCCC1)C(=O)N[C@@H](CCCNC(=N)N)C(=O)N1Cc2ccccc2C[C@H]1C(=O)N[C@@H](CC[S+](C)[O-])C(=O)N1CC[C@H](c2ccccc2)[C@H]1C(=O)N[C@@H](CO)c1nc(C(=O)N(C)C)c(C(C)C)o1 (stereo partly drawn) [Compound P43] (Ac-[Cha]R[Tic][Met(O)][Pro(3R-Ph)][X1]-NMe2) , what is its reported Stability (Arbitrary units) Human 24 h?
Marked response: 131
